Tested on: MEK4;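 further: KINOMEscan kinase panel screen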
Construct: gene MAP2K4
settings: concentration: 1 μM, replicates: in singlicate; n = 1
Each entry below lists one item and its recorded %Inh value.
Give the value, in units of %, as a plain number.

// solved cases for %Inh follow
compound	%Inh [%]
COc1ccc(C)c(Nc2ccnc(Nc3ccc(-c4cnc[nH]4)cc3)n2)c1.Cl	0
COC(=O)Nc1nc2ccc(Oc3ccc(CC(=O)Nc4cc(C(F)(F)F)ccc4F)cc3)cc2[nH]1	29
Cc1cccc(Nc2nc(NCCN)ncc2C(N)=O)c1	55
Cc1ccc(NC(=O)c2ccnc(N3CCCCC3)c2)cc1-c1ccc(C(=O)NCC2CC2)cc1	0

%Inh in this record for CC(C)c1nc(-c2cccc(NS(=O)(=O)c3c(F)cccc3F)c2)c(-c2ccnc(Nc3ccc(N4CCOCC4)nc3)n2)s1.Cl : 98.6

%Inh in this record for O=C(Nc1n[nH]c2cc(-c3cccs3)ccc12)C1CC1 : 46

%Inh in this record for CC(C)NCC(Cc1ccccc1)NC(=O)c1cc(Br)c(-c2ccnc3[nH]ccc23)s1.Cl.Cl (stereo not shown) : 39
